Assay remarks: Apparent Km value was determined
Type: ADME
Result type: Km (µM)
One number for each entry, in µM.

// lookup Km for C[C@]12CCC(=O)C=C1CC[C@@H]1[C@@H]2CC[C@]2(C)C(=O)CC[C@@H]12 [ANDROSTENEDIONE]
0.051
